Values from patent US20130109682A1

measurement.target: PIM2 (Homo sapiens, UniProt Q9P1W9)
Sequence (Q9P1W9 whole entry): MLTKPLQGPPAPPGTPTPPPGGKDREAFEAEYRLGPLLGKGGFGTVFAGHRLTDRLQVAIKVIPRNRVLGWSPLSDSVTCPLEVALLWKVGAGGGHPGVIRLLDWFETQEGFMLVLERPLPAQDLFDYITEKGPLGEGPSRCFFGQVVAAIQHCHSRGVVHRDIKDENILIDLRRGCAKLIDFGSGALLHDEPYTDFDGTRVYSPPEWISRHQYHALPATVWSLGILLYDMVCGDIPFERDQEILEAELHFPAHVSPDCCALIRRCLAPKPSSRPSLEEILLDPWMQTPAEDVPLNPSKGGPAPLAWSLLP
run.description: Pim 2 AlphaScreen assay (high ATP)
Type: biochemical
condition.details: read-out: Pim2 IC50
recorded.metric: pIC50
Units for pIC50: none; it is -log10 of a concentration expressed in mol/L.

Incoming: Output measured pIC50 for this item: C[C@]1(O)[C@H](N)C[C@H](c2ccncc2NC(=O)c2csc(-c3c(F)cccc3F)n2)O[C@@H]1C1CC1 [Example 263]
Outgoing: 7.14

Incoming: Output measured pIC50 for this item: N[C@H]1C[C@@H](c2ccncc2NC(=O)c2ccc(F)c(-c3c(F)cccc3F)n2)O[C@@H](C2CC2)[C@@H]1O [Example 236]
Outgoing: 6.68

Incoming: Output measured pIC50 for this item: Cc1cc(F)c(-c2nc(C(=O)Nc3cnccc3[C@H]3C[C@@H](N)[C@](C)(O)[C@@H](C4CC4)O3)ccc2F)c(F)c1 [Example 264]
Outgoing: 8.09

Incoming: Output measured pIC50 for this item: CC(C)[C@H]1OC(c2ccncc2NC(=O)c2ccc(F)c(-c3c(F)cc(S(C)(=O)=O)cc3F)n2)C[C@@H](N)[C@@H]1O (stereo in doubt) [Example 305]
Outgoing: 7.82

Incoming: Output measured pIC50 for this item: C[C@]1(O)[C@H](N)C[C@H](c2ccncc2NC(=O)c2nc(-c3ccccc3)cnc2N)O[C@@H]1C1CC1 [Example 344]
Outgoing: 6.97

Incoming: Output measured pIC50 for this item: CC(C)(C)[C@H]1O[C@@H](c2ccncc2NC(=O)c2ccc(F)c(-c3c(F)cccc3F)n2)C[C@H](N)[C@@H]1O [Example 278]
Outgoing: 7.15

Incoming: Output measured pIC50 for this item: COc1cc(F)c(-c2nc(C(=O)Nc3cnccc3[C@H]3C[C@@H](N)[C@H](O)[C@@H](C(C)(C)C)O3)ccc2F)c(F)c1 [Example 269]
Outgoing: 8.62

Incoming: Output measured pIC50 for this item: CC(C)[C@@H]1C[C@H](N)C[C@H](c2ccncc2NC(=O)c2ccc(F)c(-c3c(F)ccc(C#N)c3F)n2)O1 [Example 337]
Outgoing: 7.40

Incoming: Output measured pIC50 for this item: COCCOc1cc(F)c(-c2nc(C(=O)Nc3cnccc3[C@@H]3C[C@@H](N)CC(C)(C)O3)ccc2F)c(F)c1 [Example 315]
Outgoing: 7.93

Incoming: Output measured pIC50 for this item: Nc1ncc(-c2ccccc2)nc1C(=O)Nc1cnccc1[C@H]1C[C@@H](N)[C@@]2(O)CCCC[C@H]2O1 [Example 197]
Outgoing: 7.05

Incoming: Output measured pIC50 for this item: CC[C@]1(O)[C@H](N)C[C@H](c2ccncc2NC(=O)c2ccc(F)c(-c3c(F)cc(C)cc3F)n2)O[C@@H]1C [Example 259]
Outgoing: 8.32

Incoming: Output measured pIC50 for this item: CC(C)(C)[C@H]1O[C@@H](c2ccncc2NC(=O)c2csc(-c3c(F)cccc3F)n2)C[C@@H](N)[C@@H]1O [Example 268]
Outgoing: 7.69

Incoming: Output measured pIC50 for this item: CS(=O)(=O)c1cc(F)c(-c2nc(C(=O)Nc3cnccc3[C@@H]3C[C@H](N)[C@@H](O)[C@H](C4CC4)O3)ccc2F)c(F)c1 [Example 326]
Outgoing: 5.66

Incoming: Output measured pIC50 for this item: CC(C)[C@H]1O[C@@H](c2ccncc2NC(=O)c2ccc(F)c(-c3c(F)cccc3F)n2)C[C@@H](N)[C@@H]1O [Example 271]
Outgoing: 8.37

Incoming: Output measured pIC50 for this item: COCCOc1cc(F)c(-c2nc(C(=O)Nc3cnccc3C3C[C@@H](N)[C@H](O)[C@@H](C(C)C)O3)ccc2F)c(F)c1 (stereo in doubt) [Example 318]
Outgoing: 8.64

Incoming: Output measured pIC50 for this item: CC[C@@H]1O[C@H](c2ccncc2NC(=O)c2nc(-c3ccccc3)cnc2N)C[C@H](N)[C@H]1O [Example 342]
Outgoing: 5.86

Incoming: Output measured pIC50 for this item: CC1(C)C[C@H](N)C[C@@H](c2ccncc2NC(=O)c2ccc(F)c(-c3c(F)cc(OCCO)cc3F)n2)O1 [Example 314]
Outgoing: 8.12
